- system name: human ALX receptor (Homo sapiens)
- Sequence (P25090 whole entry): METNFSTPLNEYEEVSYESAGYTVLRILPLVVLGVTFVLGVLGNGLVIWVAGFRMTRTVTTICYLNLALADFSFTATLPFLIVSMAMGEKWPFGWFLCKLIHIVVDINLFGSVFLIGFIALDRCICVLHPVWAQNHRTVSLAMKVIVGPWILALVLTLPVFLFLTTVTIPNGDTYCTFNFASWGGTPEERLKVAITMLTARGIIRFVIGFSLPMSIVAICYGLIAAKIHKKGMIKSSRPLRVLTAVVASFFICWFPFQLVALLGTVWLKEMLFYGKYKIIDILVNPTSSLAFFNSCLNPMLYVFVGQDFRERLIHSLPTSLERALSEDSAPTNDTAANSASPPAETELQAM
- protocol details: Intracellular calcium measurements (FLIPR), agonistic activity in HEK293-hALXR-Gα16 cells
- cond: Fluo-4 calcium FLIPR, normalized to WKYMVm 10 nM
- Description: The ALX receptor and FPRL2 agonistic activities of the compounds of formula (I) are determined in accordance with the following experimental method. Intracellular Calcium Measurements: Cells expressing recombinant human ALX receptor and the G-protein Gα16 (HEK293-hALXR-Gα16) were grown to 80% confluency in Growing Medium (GM). […] Changes in fluorescence were monitored before and after the addition of test compounds at lex=488 nm and lem=540 nm. […]
pEC50: −log10 of the molar value.
outcome measure: pEC50

Some molecules with recorded pEC50:
NCC1CCN(C(=O)[C@H]2[C@H](C(=O)Nc3ncc(Br)s3)[C@@H]3C=C[C@H]2C32CC2)CC1 = 7.72
O=C(NCCCCN1CCCC1)[C@H]1[C@H](C(=O)Nc2ccc(Br)nc2)[C@@H]2C=C[C@H]1C21CC1 = 8.96
O=C(NCCCCN1CCCC1)[C@H]1[C@H](C(=O)Nc2cnc(Br)cn2)[C@@H]2C=C[C@H]1C21CC1 (racemic) = 8.10
CN(C)CCCNC(=O)[C@H]1[C@H](C(=O)Nc2ccc(Br)cc2)[C@@H]2C=C[C@H]1C21CC1 (racemic) = 8.02
CC(=O)c1cccc(NC(=O)[C@H]2[C@H](C(=O)NCCCCN3CCCC3)[C@H]3C=C[C@@H]2C32CC2)c1 (racemic) = 5.17
NCCCCNC(=O)[C@H]1[C@H](C(=O)NCc2ccc(Br)cc2F)[C@@H]2C=C[C@H]1C21CC1 = 7.28
CC(=O)c1nc(CNC(=O)[C@H]2[C@H](C(=O)NCCCCN3CCCC3)[C@H]3C=C[C@@H]2C32CC2)cs1 (racemic) = 5.49
O=C(NCCCCN1CCCC1)[C@H]1[C@H](C(=O)NCC2CCCCC2)[C@@H]2C=C[C@H]1C21CC1 (racemic) = 7.22

A = COc1cc(CNC(=O)[C@H]2[C@H](C(=O)NCCCCN3CCCC3)[C@H]3C=C[C@@H]2C32CC2)ccn1 (racemic)
B = NC(=O)CCC(=O)NC[C@H]1[C@H](C(=O)Nc2ccc(Br)cc2)[C@@H]2C=C[C@H]1C21CC1 (racemic)
Problem: Parameter metric = pEC50. Return the lower-valued option from A and B . Returns: label corresponding to the selected item.
Result: A
(A: 5.05, B: 6.94)

1 = NC(=O)CCNC(=O)[C@H]1[C@H](C(=O)Nc2ccc(Br)cc2)[C@@H]2CC[C@H]1C21CC1 (racemic)
2 = O=C(Nc1ccc(Br)cc1)C1C(C(=O)NC2CCC(CN3CCCC3)CC2)C2C=CC1C21CC1 (single isomer, unassigned) [Example 222]
3 = COCC1CCCN1CCCCNC(=O)[C@H]1[C@H](C(=O)Nc2ccc(Br)cc2)[C@@H]2C=C[C@H]1C21CC1 (stereo partly shown)
Problem: Put the items in sequence by pEC50, from largest down. Write the labels out in the order the request specifies.
Result: 1, 3, 2
(1: 9.34, 3: 8.85, 2: 6.68)
